Test system: THP-1
experimental_details: Cytotoxicity against human THP1 cells assessed as growth inhibition at 50 uM after 48 hrs by sulforhodamine B assay relative to control
Format: functional
settings: THP-1, 48 h, read-out: GI
Form field: inhibition of growth at 50 µM (one value per entry).
readout_label: inhibition of growth at 50 µM

1) COc1cc(/C=C/C(=O)/C=C/c2cccs2)ccc1OCc1cn(CCN2C(=O)C(=O)c3ccccc32)nn1: 71%
2) COc1cc(/C=C/C(=O)/C=C/c2cc(OC)c(OC)c(OC)c2)ccc1OCc1cn(CCN2C(=O)C(=O)c3ccccc32)nn1: 89%
3) COc1cc(/C=C/C(=O)/C=C/c2cc(OC)c(OC)c(OC)c2)ccc1OCc1cn(CCN2C(=O)C(=O)c3cc(Cl)ccc32)nn1: 86%
4) COc1cccc(/C=C/C(=O)/C=C/c2ccc(OCc3cn(CCN4C(=O)C(=O)c5ccccc54)nn3)c(OC)c2)c1: 70%
5) COc1cc(/C=C/C(=O)/C=C/c2ccc(Br)cc2)ccc1OCc1cn(CCN2C(=O)C(=O)c3cc(Cl)ccc32)nn1: 25%

The reported numbers originate from ChEMBL document CHEMBL3627713.
